assay_text: Metabolic stability in human liver microsomes assessed as clearance
Assay type: ADME, Microsome
metric: CLH (µL/min/mg)
State the answer as a number, implicitly in µL/min/mg.

Lab note: CSc1ccccc1[C@H]1CCCN1C(=O)CNC(=O)N(Cc1cnc(N)nc1)Cc1ncc(C)s1 gave CLH of 60

====

assay_text: in vitro
applied_conditions: human, Caco-2
Description: Apparent permeability of the compound in human Caco-2 cells across apical to basolateral side
metric: Papp A→B (×10⁻⁶ cm/s)
State the answer as a number, implicitly in ×10⁻⁶ cm/s.

Example entries and their recorded answers appear below.
test_smiles: CSc1ccccc1[C@H]1CCCN1C(=O)CNC(=O)N(Cc1cnc(N)nc1)Cc1ncc(C)s1
metric: Papp A→B
endpoint_unit: ×10⁻⁶ cm/s
measured_value: 0.8
//
test_smiles: CSc1ccccc1[C@H]1CCCN1C(=O)CNC(=O)N(Cc1ccc(N)c(Cl)c1)Cc1nnn(C)n1
metric: Papp A→B
endpoint_unit: ×10⁻⁶ cm/s
measured_value: 5

Would you kindly look at the next entry?
Lab note: Cn1nnc(CN(Cc2ccc(N)c(Cl)c2)C(=O)NCC(=O)N2CCC[C@@H]2c2ccccc2Br)n1 gave Papp A→B of 6.6
